molecular target: mTORC2 (Homo sapiens, UniProt P42345+Q6R327+Q9BPZ7+Q9BVC4); experiment: Inhibition of mTORC2 (unknown origin); type: protein-complex assay
Sequence (Q6R327 whole entry, other chains not shown): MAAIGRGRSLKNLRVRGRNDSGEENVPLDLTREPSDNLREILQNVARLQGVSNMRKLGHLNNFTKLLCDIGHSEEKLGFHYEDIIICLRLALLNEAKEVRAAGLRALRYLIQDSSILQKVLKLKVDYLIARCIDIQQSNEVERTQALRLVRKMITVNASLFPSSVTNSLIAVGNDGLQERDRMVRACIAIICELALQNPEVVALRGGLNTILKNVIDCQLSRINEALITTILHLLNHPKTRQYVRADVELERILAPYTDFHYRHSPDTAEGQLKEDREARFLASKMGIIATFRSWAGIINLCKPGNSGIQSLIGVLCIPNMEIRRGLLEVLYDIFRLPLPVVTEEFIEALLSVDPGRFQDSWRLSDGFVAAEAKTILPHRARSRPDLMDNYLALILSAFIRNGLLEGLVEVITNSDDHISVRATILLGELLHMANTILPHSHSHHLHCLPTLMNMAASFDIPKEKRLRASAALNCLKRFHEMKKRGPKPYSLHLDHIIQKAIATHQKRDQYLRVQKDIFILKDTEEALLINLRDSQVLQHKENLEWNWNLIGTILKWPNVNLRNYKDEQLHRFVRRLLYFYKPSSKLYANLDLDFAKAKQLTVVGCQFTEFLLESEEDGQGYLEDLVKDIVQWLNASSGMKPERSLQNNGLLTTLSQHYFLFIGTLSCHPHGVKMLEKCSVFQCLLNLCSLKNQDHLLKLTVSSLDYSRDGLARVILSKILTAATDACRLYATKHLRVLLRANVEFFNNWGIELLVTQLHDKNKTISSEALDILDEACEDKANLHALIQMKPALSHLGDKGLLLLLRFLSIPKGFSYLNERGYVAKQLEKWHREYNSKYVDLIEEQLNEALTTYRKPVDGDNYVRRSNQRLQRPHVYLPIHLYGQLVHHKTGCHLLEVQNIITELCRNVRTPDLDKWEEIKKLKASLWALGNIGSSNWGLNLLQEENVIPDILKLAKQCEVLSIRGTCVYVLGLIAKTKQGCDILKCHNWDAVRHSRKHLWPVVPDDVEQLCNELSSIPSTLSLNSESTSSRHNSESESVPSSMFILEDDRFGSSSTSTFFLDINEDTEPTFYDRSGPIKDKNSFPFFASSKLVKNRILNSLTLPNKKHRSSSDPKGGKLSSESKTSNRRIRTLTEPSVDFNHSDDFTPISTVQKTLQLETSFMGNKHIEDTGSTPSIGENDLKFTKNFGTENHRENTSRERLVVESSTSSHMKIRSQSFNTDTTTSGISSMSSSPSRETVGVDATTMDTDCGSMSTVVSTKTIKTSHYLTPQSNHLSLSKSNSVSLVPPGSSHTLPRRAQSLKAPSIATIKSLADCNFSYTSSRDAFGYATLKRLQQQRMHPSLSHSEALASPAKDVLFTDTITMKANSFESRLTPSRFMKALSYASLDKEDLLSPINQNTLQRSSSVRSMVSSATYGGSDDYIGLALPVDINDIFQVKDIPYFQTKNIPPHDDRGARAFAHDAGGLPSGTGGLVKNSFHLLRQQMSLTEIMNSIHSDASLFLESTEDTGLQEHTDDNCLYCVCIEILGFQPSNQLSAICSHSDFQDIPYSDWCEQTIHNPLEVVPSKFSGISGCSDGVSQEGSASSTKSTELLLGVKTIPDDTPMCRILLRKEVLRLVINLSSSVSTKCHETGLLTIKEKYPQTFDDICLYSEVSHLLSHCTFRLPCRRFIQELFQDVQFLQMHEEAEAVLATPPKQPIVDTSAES
Sequence (Q9BPZ7 2-522 limits assumed, other chains not shown): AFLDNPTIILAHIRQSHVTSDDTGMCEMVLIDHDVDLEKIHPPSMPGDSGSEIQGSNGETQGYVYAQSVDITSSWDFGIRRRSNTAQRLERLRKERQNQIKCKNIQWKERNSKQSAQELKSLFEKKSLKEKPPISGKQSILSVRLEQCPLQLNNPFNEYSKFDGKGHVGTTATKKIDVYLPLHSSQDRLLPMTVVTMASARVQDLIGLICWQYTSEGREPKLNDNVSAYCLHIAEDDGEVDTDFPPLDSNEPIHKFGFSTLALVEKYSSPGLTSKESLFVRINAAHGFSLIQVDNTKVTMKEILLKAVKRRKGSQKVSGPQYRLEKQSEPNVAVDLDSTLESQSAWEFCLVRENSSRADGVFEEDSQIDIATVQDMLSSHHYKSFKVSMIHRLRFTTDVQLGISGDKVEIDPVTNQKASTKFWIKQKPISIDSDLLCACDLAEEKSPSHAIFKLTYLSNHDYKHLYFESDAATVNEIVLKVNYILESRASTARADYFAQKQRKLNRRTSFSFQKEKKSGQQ
Sequence (Q9BVC4 whole entry, other chains not shown): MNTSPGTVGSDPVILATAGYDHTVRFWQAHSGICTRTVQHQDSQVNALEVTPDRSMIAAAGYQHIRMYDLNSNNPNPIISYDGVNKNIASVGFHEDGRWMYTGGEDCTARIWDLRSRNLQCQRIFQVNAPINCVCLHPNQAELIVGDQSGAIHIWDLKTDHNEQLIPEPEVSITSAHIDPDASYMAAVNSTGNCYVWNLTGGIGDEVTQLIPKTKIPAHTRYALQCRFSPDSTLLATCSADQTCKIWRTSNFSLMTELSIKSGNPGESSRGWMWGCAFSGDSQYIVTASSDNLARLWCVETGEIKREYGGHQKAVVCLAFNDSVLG
observed.property: pIC50
Answer as the number alone; pIC50 is minus log10 of concentration in mol/L.

As a guide, the following entries are already answered.
structure.string	assay.target	pIC50
CC1(C)COCCN1c1nc(-c2cnc(N)cc2C(F)F)nc(N2CCOCC2)n1	mTORC2 (Homo sapiens, UniProt P42345+Q6R327+Q9BPZ7+Q9BVC4)	7.27
Nc1ncc(-c2nc(N3CCOCC3)c3c(n2)N2CCOC[C@H]2C3)cn1	mTORC2 (Homo sapiens, UniProt P42345+Q6R327+Q9BPZ7+Q9BVC4)	6.84
Nc1ncc(-c2nc(N3CCOCC3)c3c(n2)N2CCOC[C@@H]2C3)cn1	mTORC2 (Homo sapiens, UniProt P42345+Q6R327+Q9BPZ7+Q9BVC4)	6.81

Lab note: next compound to report on.
Report measured pIC50; entry is CC(C)(O)c1ccc(-c2cnc3[nH]c(=O)n(CC4CCOCC4)c3n2)cn1
5.62
